Values compiled from patent US20190233493A1.

- target_system: T1, RXFP1 receptor (UniProt Q9HBX9 1-757, limits assumed)
- T1 sequence (looked up): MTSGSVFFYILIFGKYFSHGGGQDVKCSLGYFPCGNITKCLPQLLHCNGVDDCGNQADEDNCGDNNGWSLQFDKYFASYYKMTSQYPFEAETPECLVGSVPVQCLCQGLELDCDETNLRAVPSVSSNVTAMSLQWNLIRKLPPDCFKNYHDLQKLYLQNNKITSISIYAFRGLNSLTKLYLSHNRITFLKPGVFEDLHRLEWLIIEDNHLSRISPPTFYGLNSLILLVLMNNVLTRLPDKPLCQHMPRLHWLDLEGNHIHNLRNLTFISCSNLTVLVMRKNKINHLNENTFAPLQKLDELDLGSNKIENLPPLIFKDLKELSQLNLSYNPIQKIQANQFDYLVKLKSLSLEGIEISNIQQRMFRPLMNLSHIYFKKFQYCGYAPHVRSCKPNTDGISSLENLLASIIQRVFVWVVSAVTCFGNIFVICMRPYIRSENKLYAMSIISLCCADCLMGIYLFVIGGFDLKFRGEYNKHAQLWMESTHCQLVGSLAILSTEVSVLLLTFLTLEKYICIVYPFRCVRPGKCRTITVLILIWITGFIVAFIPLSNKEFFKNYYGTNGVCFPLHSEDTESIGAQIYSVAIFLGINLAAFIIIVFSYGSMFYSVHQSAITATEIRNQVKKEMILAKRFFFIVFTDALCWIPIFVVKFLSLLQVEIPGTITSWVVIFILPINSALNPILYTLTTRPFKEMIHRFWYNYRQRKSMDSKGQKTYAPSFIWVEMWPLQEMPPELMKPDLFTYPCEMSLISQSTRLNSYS
- assay_info: cell-based or functional assay
*1 amine or outer side, *2 acyl side, *3 side chain or, on linkers, in order; H or OH if unused. Primed or numbered codes have the meaning given here. Side-chain parts run from the residue outwards. [ ]: non-standard residue; d: D form. The star is where a group is joined. γGlu = O=C(O)[C@H](CCC(=O)[*:2])N[*:1]; 1Nal = N[C@@H](Cc1cccc2ccccc12)C(=O)O; Stearoyl = CCCCCCCCCCCCCCCCCC(=O)*; Palmitoyl = CCCCCCCCCCCCCCCC(=O)*; αMeK = C[C@](N)(CCCCN)C(=O)O; Nle = CCCC[C@H](N)C(=O)O; PEG2′ = PEG2 spacer unit; PEG2″ = not defined here; Aib = CC(C)(N)C(=O)O
quantity: EC50 (nM), OVCAR 5 cells (cAMP)
The reply should be a number in nM, with the unit left off.

Example entries and their recorded answers appear below.
Ac-LEGREKVR[Aib]K(Ac)I[Aib][Aib]EG[Nle]ST[1Nal]S[Aib]RKK([PEG2′-PEG2′-PEG2′-γGlu-γGlu-γGlu-Stearoyl])-NH2 [peptide of SEQ ID NO: 80]    0.73
Ac-LEGREKVRAK(Ac)I[Aib][Aib]EG[Nle]ST[1Nal]S[Aib]RKK(Ac)K([PEG2′-PEG2′-PEG2′-γGlu-γGlu-γGlu-Stearoyl])-NH2 [peptide of SEQ ID NO: 84]    0.09
Ac-LEGREKVRAK(Ac)I[Aib][Aib]EG[Nle]STWS[Aib]RKK([PEG2″-PEG2″-γGlu-γGlu-γGlu-Stearoyl])-NH2 [peptide of SEQ ID NO: 73]    0.12

Problem: EC50 (nM), OVCAR 5 cells (cAMP) for Ac-LEGREKVRAQI[Aib][Aib]EG[Nle]STWS[Aib]RKK([PEG2′-PEG2′-γGlu-γGlu-γGlu-Palmitoyl])-NH2 [peptide of SEQ ID NO: 58] ?
Solution: 14.8

Problem: EC50 (nM), OVCAR 5 cells (cAMP) lookup needed for Ac-LEGREKVRAQI[Aib][Aib]EG[Nle]STWS[Aib]RKKK([PEG2′-PEG2′-PEG2′-PEG2′-γGlu-γGlu-γGlu-Stearoyl])-NH2 [peptide of SEQ ID NO: 92] , thanks.
Solution: 0.26

Problem: Entry Ac-LEGREKVRAK(Ac)I[Aib][Aib]EG[Nle]STWS[αMeK]RAK(Ac)K([PEG2′-PEG2′-PEG2′-PEG2′-γGlu-γGlu-γGlu-Stearoyl])-NH2 [peptide of SEQ ID NO: 135] has what EC50 (nM), OVCAR 5 cells (cAMP)?
Solution: 0.95
